Data provenance is PubChem BioAssay (NCI).

test system: TK-10 renal; assay: NCI tumour cell line growth inhibition, 384-well format; in the data active = GI50 below about 0.43 µM; inactive = the rest
Possible outcomes: active, inactive

INSERT INTO measurements (compound, label_value) VALUES
  ('Nc1nc(OCc2ccccc2)c2[nH]cnc2n1', 'inactive'),
  ('C[C@@H]1CN(Cc2ccc(F)cc2)[C@@H](C)CN1C(=O)c1cc2c(C(=O)C(=O)N(C)C)cn(C)c2cc1Cl', 'inactive'),
  ('O=C1CCC(N2Cc3cc(CNC(=O)C(F)(F)c4ccc(Cl)cc4)ccc3C2=O)C(=O)N1 (stereo not given)', 'inactive'),
  ('CN[C@@H](C)C(=O)N[C@H](C(=O)N1CCC[C@H]1C(=O)Nc1sc(-c2ncco2)nc1-c1ccccc1)C1CCCCC1', 'inactive'),
  ('CC(C)C[C@H](NC(=O)CNC(=O)c1cc(Cl)ccc1Cl)B1OC(=O)CC(CC(=O)O)(C(=O)O)O1 (stereo not given in full)', 'active');
